TESTED_TARGET: B2 bradykinin receptor (Homo sapiens)
Sequence (P30411 whole entry): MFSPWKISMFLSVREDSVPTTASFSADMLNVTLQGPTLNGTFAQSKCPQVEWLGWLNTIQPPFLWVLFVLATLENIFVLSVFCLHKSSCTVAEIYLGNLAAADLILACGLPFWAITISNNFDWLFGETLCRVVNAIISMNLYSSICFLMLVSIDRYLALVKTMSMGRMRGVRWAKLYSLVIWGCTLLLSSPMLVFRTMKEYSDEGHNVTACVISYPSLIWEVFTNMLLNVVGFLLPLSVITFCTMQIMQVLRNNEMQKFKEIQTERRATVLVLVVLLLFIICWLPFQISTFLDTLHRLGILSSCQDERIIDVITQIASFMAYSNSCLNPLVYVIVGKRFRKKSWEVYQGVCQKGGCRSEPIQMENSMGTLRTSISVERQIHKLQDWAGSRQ
EXPERIMENT_NOTES: Displacement of [3H]bradykinin from human recombinant B2 receptor after 60 mins by scintillation counting analysis

ENTRY_SMILES | IC50
CC(C)(C)NS(=O)(=O)c1ccc(-c2sc(C(=O)N[C@H]3C[C@H](C(=O)O)C3)nc2CC2CCCCC2)c2ccccc12 | 21 nM

---

Entries and their measured clearance follow.
EXPERIMENT_NOTES: Clearance in Sprague-Dawley rat at 0.5 mg/kg, iv
Format: ADME, organism-based
SETTINGS: in vivo

ENTRY_SMILES | clearance (mL/min/kg)
CCC(C)(C)NS(=O)(=O)c1ccc(-c2sc(C(=O)N[C@H]3C[C@H](C(=O)O)C3)nc2CC2CCCCC2)c(Cl)c1C | 98.8
CC(C)(C)NS(=O)(=O)c1ccc(-c2sc(C(=O)N3CC4(C3)CS(=O)(=O)C4)nc2CC2CCCCC2)c(Cl)c1Cl | 42.5

---

EXPERIMENT_NOTES: AUC (0 to infinity) in Sprague-Dawley rat at 5 mg/kg, po
Format: ADME, organism-based
Parameters: dose 5 mg/kg, route oral, time infinity
SETTINGS: in vivo
READOUT_NAME: AUC(0-inf)

ENTRY_SMILES | READOUT_NAME | RECORDED_MEASUREMENT
C[C@H](NS(=O)(=O)c1ccc(-c2sc(C(=O)NCC(C)(C)O)nc2CC2CCC2)c(C(F)F)c1)C(F)(F)F | AUC(0-inf) | 0.321 µg·h/mL
C[C@H](NS(=O)(=O)c1ccc(-c2sc(C(=O)NC3CCS(=O)(=O)CC3)nc2CC2CC2)c2ccccc12)C(F)(F)F | AUC(0-inf) | 1.7 µg·h/mL
CC(C)(C)NS(=O)(=O)c1ccc(-c2sc(C(=O)N[C@H]3C[C@H](C(=O)O)C3)nc2CC2CCCCC2)c(Cl)c1 | AUC(0-inf) | 0.328 µg·h/mL
CC(C)(C)NS(=O)(=O)c1ccc(-c2sc(C(=O)N[C@H]3C[C@H](C(=O)O)C3)nc2CC2CCCCC2)c2ccccc12 | AUC(0-inf) | 0.328 µg·h/mL
C[C@H](NS(=O)(=O)c1ccc(-c2sc(C(=O)NCC(C)(C)O)nc2CC2CC2)c2ccccc12)C(F)(F)F | AUC(0-inf) | 0.314 µg·h/mL

---

EXPERIMENT_NOTES: Displacement of [3H]D 888 from rat brain L-type calcium channel verapamil binding site after 120 mins by scintillation counting analysis

ENTRY_SMILES | IC50 [nM]
CC(C)(C)NS(=O)(=O)c1ccc(-c2sc(C(=O)N[C@H]3C[C@H](C(=O)O)C3)nc2CC2CCCCC2)c2ccccc12 | 51
